Provenance of the data: the supplement of paper PMC10567573

B1: DLC1 (parent)
chain: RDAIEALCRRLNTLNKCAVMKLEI

Variants of: B1
EXPERIMENT SUMMARY: protein stability index of a GFP-peptide fusion (GPS, HEK-293T) (PSI 1-6); higher = more stable;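 note: lentivirally expressed fusions sorted by FACS into six bins by GFP to DsRed ratio, PSI derived from sequencing read proportions per bin multiplied by bin number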
EXPERIMENTAL CONTEXT: c terminus: a fixed tail appended
Label y when protein stability index is at or above 2; anything below gets n.

Can A6D be said to have protein stability index at or above 2?
n

I'd appreciate it if you could say whether C17H has protein stability index at least equal to 2.
y

Check the entry T13E : does protein stability index equal or exceed 2?
n

Evaluate R1E : protein stability index at minimum 2?
y

Textbook exercise: given the entry I4L , state whether its protein stability index is greater than or equal to 2.
y

Determine whether measured protein stability index meets or exceeds 2 for R9K
n

API: above_or_equal(metric=protein stability index, cutoff=2) for item D2A
y

Assess whether reported protein stability index for C8V sits at 2 or higher.
y

Item N12E with protein stability index of 2 or above?
n

Kindly determine if protein stability index recorded for R1Y is above or exactly 2.
y
